Cited source for all entries: the Human Domainome abundance scans (Beltran et al. 2025)

B1: Histone-lysine N-methyltransferase SETD2, residues 2382 to 2430; numbered along this chain, Q9BYW2 (parent)
chain: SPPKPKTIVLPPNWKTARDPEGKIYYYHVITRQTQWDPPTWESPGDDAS

- Variants of: B1
- protocol notes: abundance fitness (aPCA) (normalised: wild type 0, dead -1); higher = more abundant; growth selection in yeast, the domain comes from the species named
- run conditions: Homo sapiens

# sequence data, abundance fitness
records = [
    ("SPPKPKTIVLPPNWKTARDPEGKIYYYHVITRQTQWDPPTMESPGDDAS [W41M]", 0.16),
    ("SPPKPKTIVLPPNWKTARDPEGKIYYYHVITRQTEWDPPTWESPGDDAS [Q35E]", -0.547),
    ("SPPKPKWIVLPPNWKTARDPEGKIYYYHVITRQTQWDPPTWESPGDDAS [T7W]", -0.462),
    ("SPPKPKTIVLPPNWKTARLPEGKIYYYHVITRQTQWDPPTWESPGDDAS [D19L]", -0.407),
    ("SPPKPKTIVLPPNWKTARDPEGKIYYYHVITRETQWDPPTWESPGDDAS [Q33E]", 0.099),
    ("SPPKPKTIVLPPNWKTARDPEGKIYYYYVITRQTQWDPPTWESPGDDAS [H28Y]", -0.6),
    ("SPPKPKTIVLPPNWKTARDPEGKIYYYHVITRQTQWDAPTWESPGDDAS [P38A]", -0.126),
    ("SPPKPKTIVLPPNWKTARDPEGKIYYYHVITHQTQWDPPTWESPGDDAS [R32H]", -0.131),
    ("SPPKPKCIVLPPNWKTARDPEGKIYYYHVITRQTQWDPPTWESPGDDAS [T7C]", -0.062),
    ("SPPKPKTIVLPPNWKTARDPEGKIYYYHVITRQTQWDIPTWESPGDDAS [P38I]", -0.111),
    ("SPPKPKTIVLPPNWKTSRDPEGKIYYYHVITRQTQWDPPTWESPGDDAS [A17S]", -0.155),
    ("SPPKPKTIVLPPNWKTARDPEGKIYYYHVITRCTQWDPPTWESPGDDAS [Q33C]", -0.251),
    ("SPPKPKTIVLPWNWKTARDPEGKIYYYHVITRQTQWDPPTWESPGDDAS [P12W]", -0.309),
    ("SPPKPKTIVLPPNWKTARDPEGKIYYYHVITRQTQWDKPTWESPGDDAS [P38K]", -0.121),
    ("SPPKPKTIILPPNWKTARDPEGKIYYYHVITRQTQWDPPTWESPGDDAS [V9I]", 0.132),
    ("SPPKPKTIVLPPNWKTARDPEGKIYYYHVITRQTQADPPTWESPGDDAS [W36A]", -0.239),
    ("SPPKPKTIVLPPNWKTARDPEGKIYYSHVITRQTQWDPPTWESPGDDAS [Y27S]", -0.433),
    ("SPPKPKTIVLPPNWKTARDPEGKIYYYHVITRQTQWDPPTWESRGDDAS [P44R]", -0.031),
    ("SPPKPKTIVVPPNWKTARDPEGKIYYYHVITRQTQWDPPTWESPGDDAS [L10V]", -0.242),
    ("SPPKPKTIVLPPNWKTWRDPEGKIYYYHVITRQTQWDPPTWESPGDDAS [A17W]", -0.77),
    ("SPKKPKTIVLPPNWKTARDPEGKIYYYHVITRQTQWDPPTWESPGDDAS [P3K]", 0.325),
    ("SPPKPKTIVLPPNWKTARDPEGKIYYYNVITRQTQWDPPTWESPGDDAS [H28N]", 0.023),
    ("SPPKPKTIVLPPNWKTAYDPEGKIYYYHVITRQTQWDPPTWESPGDDAS [R18Y]", -0.105),
    ("SPPKPKTIVLPPNWKTARDPEGKIYYYHVITRQTQWDPPTWESPGHDAS [D46H]", 0.119),
    ("SPPKPKTIVLPPNWKTARDPEGKIYYYHVITRQTQWDPVTWESPGDDAS [P39V]", -0.894),
    ("SPPKPKTIVLPPNWKAARDPEGKIYYYHVITRQTQWDPPTWESPGDDAS [T16A]", 0.027),
    ("SPPKPKTIVLPPNWKTARDPEGKIYYYHVITCQTQWDPPTWESPGDDAS [R32C]", -0.357),
    ("SPPKPSTIVLPPNWKTARDPEGKIYYYHVITRQTQWDPPTWESPGDDAS [K6S]", 0.103),
    ("SPPKPKTIVLPPNWKTARDPEGKWYYYHVITRQTQWDPPTWESPGDDAS [I24W]", -0.123),
    ("SPPKPKTIVLPPNWKTARDPEGKHYYYHVITRQTQWDPPTWESPGDDAS [I24H]", -0.549),
    ("SPPKPKTIVLPPNWKTARDTEGKIYYYHVITRQTQWDPPTWESPGDDAS [P20T]", 0.006),
    ("SPPKPKTIVLPPNWKTARDPEGKIYYYHVIHRQTQWDPPTWESPGDDAS [T31H]", -0.761),
    ("SPPKPKTIVLPPNWKTRRDPEGKIYYYHVITRQTQWDPPTWESPGDDAS [A17R]", 0.023),
    ("SPPKPKTIVLPPNWKTARDPEGKIYHYHVITRQTQWDPPTWESPGDDAS [Y26H]", -0.618),
    ("SPPKPKTIVLPPNWKTARDPEGKTYYYHVITRQTQWDPPTWESPGDDAS [I24T]", -0.228),
    ("SPPKPKTIVLPPNWKTARDVEGKIYYYHVITRQTQWDPPTWESPGDDAS [P20V]", -0.31),
    ("SPPKPKTIVLPPNWKTARDPEGKIYYYHVITRQTQWDPETWESPGDDAS [P39E]", -1),
    ("SPPKPKTIVLPPNWKTARDPEGKIYYYHVITRQTQWDPPTWESPGDEAS [D47E]", 0.035),
    ("SPPKPKTIVLPKNWKTARDPEGKIYYYHVITRQTQWDPPTWESPGDDAS [P12K]", 0.048),
    ("SPPKPKTIVLPPNWKTARDPEGKIYYYHVITRQTQWDPPTWESPGDDWS [A48W]", -0.07),
    ("SPPKPKTIVLPPNWKTARDPEGKIYYYHVITRQGQWDPPTWESPGDDAS [T34G]", -0.379),
    ("SPPKPKTIVLPPNWKTARDPEGIIYYYHVITRQTQWDPPTWESPGDDAS [K23I]", -0.447),
    ("SPPKPKTIVLPPNWKTARDPEGKIYYYHVITRQTQRDPPTWESPGDDAS [W36R]", 0.139),
    ("SPPKPKTIFLPPNWKTARDPEGKIYYYHVITRQTQWDPPTWESPGDDAS [V9F]", 0.049),
    ("SPPKPKTIVLPPNWKCARDPEGKIYYYHVITRQTQWDPPTWESPGDDAS [T16C]", -0.213),
    ("SPPKPKTIVLPPNWKTARDPEGKIYYYHVITRMTQWDPPTWESPGDDAS [Q33M]", -0.614),
]
